Give kcat/Km for every item shown.
Tested on: Enterococcus
Assay: Ratio of kcat to Km of Enterococcus APH(3')-3a
Give bare numbers, in ×10⁴ /M/s.

NCCCC[C@H](N)C(=O)NC[C@H]1O[C@@H](O[C@@H]2[C@@H](O)[C@H](N)C[C@H](N)[C@H]2O[C@H]2O[C@H](CN)[C@@H](O)[C@H](O)[C@H]2N)[C@H](O)[C@@H]1O[C@H]1O[C@@H](CN)[C@@H](O)[C@H](O)[C@H]1N 0.51
NCC[C@H](O)C(=O)NC[C@H]1O[C@@H](O[C@@H]2[C@@H](O)[C@H](N)C[C@H](N)[C@H]2O[C@H]2O[C@H](CN)[C@@H](O)[C@H](O)[C@H]2N)[C@H](O)[C@@H]1O[C@H]1O[C@@H](CN)[C@@H](O)[C@H](O)[C@H]1N 0.94

Can you give me kcat/Km for all of these, one by one?
1. C[C@@H](N)C(=O)NC[C@H]1O[C@@H](O[C@@H]2[C@@H](O)[C@H](N)C[C@H](N)[C@H]2O[C@H]2O[C@H](CN)[C@@H](O)[C@H](O)[C@H]2N)[C@H](O)[C@@H]1O[C@H]1O[C@@H](CN)[C@@H](O)[C@H](O)[C@H]1N
2. NCCCC[C@@H](N)C(=O)NC[C@H]1O[C@@H](O[C@@H]2[C@@H](O)[C@H](N)C[C@H](N)[C@H]2O[C@H]2O[C@H](CN)[C@@H](O)[C@H](O)[C@H]2N)[C@H](O)[C@@H]1O[C@H]1O[C@@H](CN)[C@@H](O)[C@H](O)[C@H]1N
3. NCc1cn(C[C@H]2O[C@@H](O[C@@H]3[C@@H](O)[C@H](N)C[C@H](N)[C@H]3O[C@H]3O[C@H](CN)[C@@H](O)[C@H](O)[C@H]3N)[C@H](O)[C@@H]2O[C@H]2O[C@@H](CN)[C@@H](O)[C@H](O)[C@H]2N)nn1
4. CCCCCCCCCCCCCCCCCC(=O)NC[C@H]1O[C@@H](O[C@@H]2[C@@H](O)[C@H](N)C[C@H](N)[C@H]2O[C@H]2O[C@H](CN)[C@@H](O)[C@H](O)[C@H]2N)[C@H](O)[C@@H]1O[C@H]1O[C@@H](CN)[C@@H](O)[C@H](O)[C@H]1N

## Result
1: 0.65; 2: 0.47; 3: 0.3; 4: 0.7

###

Give MIC for every item shown.
System: Escherichia coli
Assay: Antibacterial activity against aminoglycoside-susceptible Escherichia coli TG1 after 12 to 18 hrs
Assay type: functional
Answers are plain numbers, in µg/mL.

NC[C@@H]1O[C@H](O[C@H]2[C@@H](O)[C@H](O[C@@H]3[C@@H](O)[C@H](N)C[C@H](N)[C@H]3O[C@H]3O[C@H](CN)[C@@H](O)[C@H](O)[C@H]3N)O[C@@H]2CNC(=O)[C@@H](N)Cc2c[nH]c3ccccc23)[C@H](N)[C@@H](O)[C@@H]1O 8
C[C@@H](N)C(=O)NC[C@H]1O[C@@H](O[C@@H]2[C@@H](O)[C@H](N)C[C@H](N)[C@H]2O[C@H]2O[C@H](CN)[C@@H](O)[C@H](O)[C@H]2N)[C@H](O)[C@@H]1O[C@H]1O[C@@H](CN)[C@@H](O)[C@H](O)[C@H]1N 16

Can you give me MIC for all of these, one by one?
1. NC[C@@H]1O[C@H](O[C@H]2[C@@H](O)[C@H](O[C@@H]3[C@@H](O)[C@H](N)C[C@H](N)[C@H]3O[C@H]3O[C@H](CN)[C@@H](O)[C@H](O)[C@H]3N)O[C@@H]2CNC(=O)[C@@H](N)CO)[C@H](N)[C@@H](O)[C@@H]1O
2. NCCCC[C@@H](N)C(=O)NC[C@H]1O[C@@H](O[C@@H]2[C@@H](O)[C@H](N)C[C@H](N)[C@H]2O[C@H]2O[C@H](CN)[C@@H](O)[C@H](O)[C@H]2N)[C@H](O)[C@@H]1O[C@H]1O[C@@H](CN)[C@@H](O)[C@H](O)[C@H]1N

## Result
[8, 16]

###

Give MIC for every item shown.
Test system: Escherichia coli
Experiment: Antibacterial activity against aminoglycoside-susceptible Escherichia coli ATCC 25922 after 12 to 18 hrs
Type: functional

NC[C@@H]1O[C@H](O[C@H]2[C@@H](O)[C@H](O[C@@H]3[C@@H](O)[C@H](N)C[C@H](N)[C@H]3O[C@H]3O[C@H](CN)[C@@H](O)[C@H](O)[C@H]3N)O[C@@H]2Cn2cc(CNC(=O)c3cc(-c4ccccc4)nc4ccccc34)nn2)[C@H](N)[C@@H](O)[C@@H]1O 32 µg/mL

Can you give me MIC for all of these, one by one?
1. NCCCC[C@H](N)C(=O)NC[C@H]1O[C@@H](O[C@@H]2[C@@H](O)[C@H](N)C[C@H](N)[C@H]2O[C@H]2O[C@H](CN)[C@@H](O)[C@H](O)[C@H]2N)[C@H](O)[C@@H]1O[C@H]1O[C@@H](CN)[C@@H](O)[C@H](O)[C@H]1N
2. NCC[C@H](O)C(=O)NC[C@H]1O[C@@H](O[C@@H]2[C@@H](O)[C@H](N)C[C@H](N)[C@H]2O[C@H]2O[C@H](CN)[C@@H](O)[C@H](O)[C@H]2N)[C@H](O)[C@@H]1O[C@H]1O[C@@H](CN)[C@@H](O)[C@H](O)[C@H]1N
3. CCCCCCC(=O)NC[C@H]1O[C@@H](O[C@@H]2[C@@H](O)[C@H](N)C[C@H](N)[C@H]2O[C@H]2O[C@H](CN)[C@@H](O)[C@H](O)[C@H]2N)[C@H](O)[C@@H]1O[C@H]1O[C@@H](CN)[C@@H](O)[C@H](O)[C@H]1N
4. CCCCCCc1cn(C[C@H]2O[C@@H](O[C@@H]3[C@@H](O)[C@H](N)C[C@H](N)[C@H]3O[C@H]3O[C@H](CN)[C@@H](O)[C@H](O)[C@H]3N)[C@H](O)[C@@H]2O[C@H]2O[C@@H](CN)[C@@H](O)[C@H](O)[C@H]2N)nn1
5. NC[C@@H]1O[C@H](O[C@H]2[C@@H](O)[C@H](O[C@@H]3[C@@H](O)[C@H](N)C[C@H](N)[C@H]3O[C@H]3O[C@H](CN)[C@@H](O)[C@H](O)[C@H]3N)O[C@@H]2Cn2cc(CNC(=O)C3CCNCC3)nn2)[C@H](N)[C@@H](O)[C@@H]1O

## Result
["16 µg/mL", "8 µg/mL", "16 µg/mL", "32 µg/mL", "16 µg/mL"]

###

Test system: Escherichia coli
Experiment: Antibacterial activity against aminoglycoside-susceptible Escherichia coli ATCC 25922 after 12 to 18 hrs
Format: functional
Give MIC for every item shown.
Give bare numbers, in µg/mL.

NC[C@@H]1O[C@H](O[C@H]2[C@@H](O)[C@H](O[C@@H]3[C@@H](O)[C@H](N)C[C@H](N)[C@H]3O[C@H]3O[C@H](CN)[C@@H](O)[C@H](O)[C@H]3N)O[C@@H]2CNC(=O)c2cc(-c3ccccc3)nc3ccccc23)[C@H](N)[C@@H](O)[C@@H]1O 8
NC[C@@H]1O[C@H](O[C@H]2[C@@H](O)[C@H](O[C@@H]3[C@@H](O)[C@H](N)C[C@H](N)[C@H]3O[C@H]3O[C@H](CN)[C@@H](O)[C@H](O)[C@H]3N)O[C@@H]2CNC(=O)[C@@H](N)CO)[C@H](N)[C@@H](O)[C@@H]1O 8
NCC(=O)NCC(=O)NC[C@H]1O[C@@H](O[C@@H]2[C@@H](O)[C@H](N)C[C@H](N)[C@H]2O[C@H]2O[C@H](CN)[C@@H](O)[C@H](O)[C@H]2N)[C@H](O)[C@@H]1O[C@H]1O[C@@H](CN)[C@@H](O)[C@H](O)[C@H]1N 16

Now, please, on to the next molecule.
## Task # lookup: MIC of "NC[C@@H]1O[C@H](O[C@H]2[C@@H](O)[C@H](O[C@@H]3[C@@H](O)[C@H](N)C[C@H](N)[C@H]3O[C@H]3O[C@H](CN)[C@@H](O)[C@H](O)[C@H]3N)O[C@@H]2CNC(=O)[C@@H](N)Cc2c[nH]c3ccccc23)[C@H](N)[C@@H](O)[C@@H]1O"
## Result 16

###

Test system: Enterococcus
Assay: Activity of Enterococcus APH(3')-3a
readout_label: Vmax (µmol/min/mg)
Numbers only, in µmol/min/mg.

NC[C@@H]1O[C@H](O[C@H]2[C@@H](O)[C@H](O[C@@H]3[C@@H](O)[C@H](N)C[C@H](N)[C@H]3O[C@H]3O[C@H](CN)[C@@H](O)[C@H](O)[C@H]3N)O[C@@H]2CNC(=O)[C@@H](N)CO)[C@H](N)[C@@H](O)[C@@H]1O 1.01

Now, please, on to the next compound.
## Task # lookup: Vmax of "CCCCCCCCCCCCCCCCCC(=O)NC[C@H]1O[C@@H](O[C@@H]2[C@@H](O)[C@H](N)C[C@H](N)[C@H]2O[C@H]2O[C@H](CN)[C@@H](O)[C@H](O)[C@H]2N)[C@H](O)[C@@H]1O[C@H]1O[C@@H](CN)[C@@H](O)[C@H](O)[C@H]1N"
## Result 0.84

Value source: ChEMBL document CHEMBL1140232
